# Test system: rodent lifetime carcinogenesis bioassay, tumor incidence TD50
# Method Notes: carcinogenic potency in animals, long-term in vivo studies, CPDB compilation (AID 1745844)
# Settings: mouse; strain Charles River CD1; females; in drinking water; site: all sites; lesion: lymphoma and leukemia, combined; dosed 118 weeks; study length 118 weeks
Calls of active or inactive are those of the source. How the calls were made is not given here.
Measurement Kind: TD50

Structure Smiles String: [Cl][Hg][Cl]
Measurement Kind: TD50
Observed Result: 3.58 mg/kg/day (inactive)

====

# Test system: rodent lifetime carcinogenesis bioassay, tumor incidence TD50
# Method Notes: carcinogenic potency in animals, long-term in vivo studies, CPDB compilation (AID 1745844)
# Settings: mouse; strain B6C3F1; males; inhaled; site: nasal cavity, respiratory epithelium; lesion: adenoma; dosed 102 weeks; study length 105 weeks

Compound: C=CCOCC1CO1 (stereo unspecified)
TD50: 182 mg/kg/day

====

# Tested on: rodent lifetime carcinogenesis bioassay, tumor incidence TD50
# Method Notes: carcinogenic potency in animals, long-term in vivo studies, CPDB compilation (AID 1745844)
# Settings: mouse; strain Swiss albino; females; in drinking water; site: lung; lesion: several types; types named in the paper; dosed 95 weeks; study length 95 weeks

Structure Smiles String: O=S(=O)(O)O
TD50: 23.8 mg/kg/day

====

# Tested on: rodent lifetime carcinogenesis bioassay, tumor incidence TD50
# Method Notes: carcinogenic potency in animals, long-term in vivo studies, CPDB compilation (AID 1745844)
# Settings: rat; strain Fischer 344; males; in feed; site: skin; lesion: sebaceous adenoma; dosed 103 weeks; study length 104 weeks
Measurement Kind: TD50

Structure Smiles String: N=C1C=CC(=C(c2ccc(N)cc2)c2ccc(N)cc2)C=C1
Measurement Kind: TD50
Observed Result: 424 mg/kg/day

Structure Smiles String: NC(=O)NN=Cc1ccc([N+](=O)[O-])o1
Measurement Kind: TD50
Observed Result: 177 mg/kg/day

====

# System: rodent lifetime carcinogenesis bioassay, tumor incidence TD50
# Method Notes: carcinogenic potency in animals, long-term in vivo studies, CPDB compilation (AID 1745844)
# Settings: rat; strain F344/DuCrj; males; in drinking water; site: adrenal medulla; lesion: pheochromocytoma; dosed 104 weeks; study length 108 weeks
Measurement Kind: TD50

Structure Smiles String: CC(=O)OC/C=C(C)/C=C/C=C(C)/C=C/C1=C(C)CCCC1(C)C
System Under Test: rodent lifetime carcinogenesis bioassay, tumor incidence TD50
Observed Result: 86.4 mg/kg/day

====

# System: rodent lifetime carcinogenesis bioassay, tumor incidence TD50
# Method Notes: carcinogenic potency in animals, long-term in vivo studies, CPDB compilation (AID 1745844)
# Settings: rat; strain Fischer 344; males; in drinking water; site: liver; lesion: hepatocellular carcinoma; dosed 75 weeks; study length 125 weeks
Measurement Kind: TD50

Structure Smiles String: O=NN(CCO)CCO
Measurement Kind: TD50
Observed Result: 9.03 mg/kg/day

====

# Tested on: rodent lifetime carcinogenesis bioassay, tumor incidence TD50
# Method Notes: carcinogenic potency in animals, long-term in vivo studies, CPDB compilation (AID 1745844)
# Settings: rat; strain Fischer 344; females; inhaled; site: uterus; lesion: endometrial stromal polyp; dosed 102 weeks; study length 105 weeks

Structure Smiles String: CCCl
TD50: 10200 mg/kg/day

====

# Test system: rodent lifetime carcinogenesis bioassay, tumor incidence TD50
# Method Notes: carcinogenic potency in animals, long-term in vivo studies, CPDB compilation (AID 1745844)
# Settings: mouse; strain B6C3F1; males; by gavage; site: Harderian gland; lesion: adenoma; dosed 103 weeks; study length 105 weeks
Measurement Kind: TD50

Structure Smiles String: C=CC(=O)NCO
Observed Result: 17.5 mg/kg/day

====

# Test system: rodent lifetime carcinogenesis bioassay, tumor incidence TD50
# Method Notes: carcinogenic potency in animals, long-term in vivo studies, CPDB compilation (AID 1745844)
# Settings: rat; strain Charles River CD (Sprague-Dawley); males; inhaled; site: liver; lesion: neoplastic nodule; dosed 26 weeks; study length 78 weeks

Structure Smiles String: C=CCl
Display Unit: mg/kg/day
TD50: 11.5

====

# System: rodent lifetime carcinogenesis bioassay, tumor incidence TD50
# Method Notes: carcinogenic potency in animals, long-term in vivo studies, CPDB compilation (AID 1745844)
# Settings: rat; strain Wistar; males; in feed; site: small intestine; lesion: adenocarcinoma; dosed 52 weeks; study length 52 weeks
Measurement Kind: TD50 (mg/kg/day)

Compound: O=P(O)(OCC(Br)CBr)OCC(Br)CBr (stereo unspecified)
Measurement Kind: TD50
Display Unit: mg/kg/day
Observed Result: 60.9

====

# Test system: rodent lifetime carcinogenesis bioassay, tumor incidence TD50
# Method Notes: carcinogenic potency in animals, long-term in vivo studies, CPDB compilation (AID 1745844)
# Settings: rat; strain Wistar; males; inhaled; site: brain; lesion: one or several types; types not named; dosed 52 weeks; study length 78 weeks

Structure Smiles String: C=CCl
TD50: 5820 mg/kg/day

====

# Test system: rodent lifetime carcinogenesis bioassay, tumor incidence TD50
# Method Notes: carcinogenic potency in animals, long-term in vivo studies, CPDB compilation (AID 1745844)
# Settings: rat; strain Fischer 344; males; in drinking water; site: lung; lesion: alveolar/bronchiolar adenoma + alveolar/bronchiolar carcinoma; dosed 104 weeks; study length 104 weeks
Measurement Kind: TD50 (mg/kg/day)

Structure Smiles String: Cc1ccc(S(=O)(=O)Oc2ccc(N=Nc3ccc(-c4ccc(N=Nc5c(O)ccc6cc(S(=O)(=O)O)cc(S(=O)(=O)O)c56)c(C)c4)cc3C)cc2)cc1
System Under Test: rodent lifetime carcinogenesis bioassay, tumor incidence TD50
Measurement Kind: TD50
Display Unit: mg/kg/day
Observed Result: 47.2

====

# System: rodent lifetime carcinogenesis bioassay, tumor incidence TD50
# Method Notes: carcinogenic potency in animals, long-term in vivo studies, CPDB compilation (AID 1745844)
# Settings: mouse; strain Swiss albino; males; in drinking water; site: lung; lesion: several types; types named in the paper; dosed 97 weeks; study length 102 weeks
Measurement Kind: TD50

Structure Smiles String: CN(N)C=O
Observed Result: 0.865 mg/kg/day

====

# Tested on: rodent lifetime carcinogenesis bioassay, tumor incidence TD50
# Method Notes: carcinogenic potency in animals, long-term in vivo studies, CPDB compilation (AID 1745844)
# Settings: rat; strain Fischer 344; females; in feed; site: thyroid gland; lesion: malignant tumor; dosed 103 weeks; study length 103 weeks

Structure Smiles String: O=c1cc[nH]c(=S)[nH]1
TD50: 22.9 mg/kg/day

====

# Tested on: rodent lifetime carcinogenesis bioassay, tumor incidence TD50
# Method Notes: carcinogenic potency in animals, long-term in vivo studies, CPDB compilation (AID 1745844)
# Settings: rat; strain Fischer 344; males; in feed; site: liver; lesion: hepatocellular adenoma + hepatocellular carcinoma + neoplastic nodule; dosed 78 weeks; study length 106 weeks

Structure Smiles String: c1ccc(NNc2ccccc2)cc1
TD50: 3.7 mg/kg/day
//
Structure Smiles String: CCn1c2ccccc2c2cc(N)ccc21
TD50: 39.2 mg/kg/day
//
Structure Smiles String: Nc1ccc2c(c1)C(=O)c1ccccc1C2=O
TD50: 101 mg/kg/day
//
Structure Smiles String: Cc1cc(N)ccc1N
TD50: 233 mg/kg/day

====

# System: rodent lifetime carcinogenesis bioassay, tumor incidence TD50
# Method Notes: carcinogenic potency in animals, long-term in vivo studies, CPDB compilation (AID 1745844)
# Settings: mouse; strain B6C3F1; males; inhaled; site: Harderian gland; lesion: carcinoma; dosed 80 weeks; study length 96 weeks
Measurement Kind: TD50 (mg/kg/day)

Structure Smiles String: C=CC(=C)C
Display Unit: mg/kg/day
Observed Result: 12800

====

# Test system: rodent lifetime carcinogenesis bioassay, tumor incidence TD50
# Method Notes: carcinogenic potency in animals, long-term in vivo studies, CPDB compilation (AID 1745844)
# Settings: rat; strain Fischer 344; females; in drinking water; site: duodenum + jejunum; lesion: adenomatous polyp + mucinous cystadenocarcinoma; dosed 98 weeks; study length 104 weeks
Measurement Kind: TD50

Structure Smiles String: Cc1ccc(S(=O)(=O)Oc2ccc(N=Nc3ccc(-c4ccc(N=Nc5c(O)ccc6cc(S(=O)(=O)O)cc(S(=O)(=O)O)c56)c(C)c4)cc3C)cc2)cc1
Observed Result: 213 mg/kg/day

====

# System: rodent lifetime carcinogenesis bioassay, tumor incidence TD50
# Method Notes: carcinogenic potency in animals, long-term in vivo studies, CPDB compilation (AID 1745844)
# Settings: rat; strain Fischer; males; in feed; site: urinary bladder; lesion: transitional-cell carcinoma; dosed 75 weeks; study length 75 weeks
Measurement Kind: TD50

Structure Smiles String: COc1cc2c(cc1N)oc1ccccc12
Observed Result: 78.2 mg/kg/day

====

# System: rodent lifetime carcinogenesis bioassay, tumor incidence TD50
# Method Notes: carcinogenic potency in animals, long-term in vivo studies, CPDB compilation (AID 1745844)
# Settings: rat; strain Fischer 344; females; by gavage; site: colon + jejunum; lesion: adenocarcinoma; dosed 91 weeks; study length 105 weeks
Measurement Kind: TD50 (mg/kg/day)

Structure Smiles String: ClCC(Cl)CCl
Measurement Kind: TD50
Observed Result: 78.4
